Entry source: patent US20210387949A1

Overview of reported % mortality 48 h across a group of compounds:
test system: honeybee Apis mellifera; experiment: Oral toxicity against honeybee; assay type: in vivo; details: 150 ng/bee, oral, 48 h, DMSO 1%
Reply with just the number (in %).

Some solved cases for reference:
1. COc1ccc(S(=O)(=O)N2CCCC2C#N)cn1 (stereo not shown) : 3.7
2. COc1ccc(S(=O)(=O)N2CCCC2)cn1 : 1.2
3. N#C[C@@H]1CCCN1S(=O)(=O)c1ccc(Cl)nc1 : 0

Now consider the entry below.
Item under review: Cc1ccc(S(=O)(=O)N2CCC[C@H]2C#N)cn1 . Reported % mortality 48 h?
0

---

system: cercal nerve giant interneuron synapses within the cockroach sixth abdominal ganglion (A6); experiment: Mannitol-gap recordings, neurotoxic effect on insect cholinergic synaptic transmission; assay type: cell-based; settings: bath application, in words
VALUE_TYPE: Depolarization of the sixth abdominal ganglion

1. COc1ccc(S(=O)(=O)N2CCCC2)cn1 [Compound 3ii] : strong depolarization
2. N#C[C@@H]1CCCN1S(=O)(=O)c1ccc(Cl)nc1 [Compound 3i] : strong depolarization
3. COc1ccc(S(=O)(=O)N2CCCC2C#N)cn1 (stereo not shown) [Compound 3iii] : strong depolarization
4. Cc1ccc(S(=O)(=O)N2CCC[C@H]2C#N)cn1 [Compound 3iv] : strong depolarization
